experiment: Force of contraction of guinea pig papillary muscle; type: cell-based; conditions: guinea pig, papillary muscle
MEASUREMENT_KIND: inhibition at 100 µM (%)
Report only the number, with the unit % understood.

Problem: Endpoint output: inhibition at 100 µM of CCCN1CCCC[C@H]1C(=O)Nc1c(C)cccc1C [3 L, L-N-n-propylpipecolic acid-2,6-xylidide] . Value?
Result: 8

###

test system: ulnar volar nerves; experiment: Finger blockade, digital nerve blocks in man; format: in vivo; conditions: Concentration 0.25%
MEASUREMENT_KIND: Analgesia-duration, finger blockade (min)
Report only the number, with the unit min understood.

[[record]]
compound = "CCCCN1CCCCC1C(=O)Nc1c(C)cccc1C (racemic) [4 R, N--n-butylpipecolic acid-2,6-xylidide]"
target_system = "ulnar volar nerves"
observed_value = 388

[[record]]
compound = "CCCN1CCCC[C@H]1C(=O)Nc1c(C)cccc1C [3 L, L-N-n-propylpipecolic acid-2,6-xylidide]"
target_system = "ulnar volar nerves"
observed_value = 739


Problem: Endpoint output: Analgesia-duration, finger blockade of CCCN1CCCCC1C(=O)Nc1c(C)cccc1C (stereo not drawn) [3 R, N--n-propylpipecolic acid 2,6-xylidide] . Value?
Result: 263

Problem: Endpoint output: Analgesia-duration, finger blockade of CCCCN1CCCC[C@@H]1C(=O)Nc1c(C)cccc1C . Value?
Result: 243

Problem: Endpoint output: Analgesia-duration, finger blockade of CCCCN1CCCC[C@H]1C(=O)Nc1c(C)cccc1C . Value?
Result: 259

Problem: Endpoint output: Analgesia-duration, finger blockade of CCCN1CCCC[C@@H]1C(=O)Nc1c(C)cccc1C . Value?
Result: 175

###

test: in vivo; settings: mouse, iv, read-out: LD50 I.v. (intravenous)
MEASUREMENT_KIND: LD50
Number plus unit, in that order.

Problem: Endpoint output: LD50 of CCN1CCCCC1C(=O)Nc1c(C)cccc1C (stereo not shown) [2 R, N--ethylpipecolic acid-2,6-xylidide] . Value?
Result: 21 mg/kg

###

Measured inhibition at 10 µM of individual entries
experiment: Force of contraction of guinea pig papillary muscle; format: cell-based; conditions: guinea pig, papillary muscle
Report only the number, with the unit % understood.

[[record]]
compound = "CCCCN1CCCCC1C(=O)Nc1c(C)cccc1C (racemic) [4 R, N--n-butylpipecolic acid-2,6-xylidide]"
scale_unit = "%"
observed_value = 41.7


Problem: Endpoint output: inhibition at 10 µM of CCCN1CCCC[C@H]1C(=O)Nc1c(C)cccc1C [3 L, L-N-n-propylpipecolic acid-2,6-xylidide] . Value?
Result: 9.6

###

test: in vivo; details: mouse, iv, 50% mortality of mice, racemate
MEASUREMENT_KIND: LD50 (mg/kg)
Report only the number, with the unit mg/kg understood.

Problem: Endpoint output: LD50 of CCCCN1CCCCC1C(=O)Nc1c(C)cccc1C (racemic) [4 R, N--n-butylpipecolic acid-2,6-xylidide] . Value?
Result: 7.8

###

Measured Frequency (successful anesthesias of total performed) of individual entries
system: ulnar volar nerves; assay: Finger blockade, digital nerve blocks in man; format: in vivo; conditions: Concentration 0.25%

# count of solved cases: 2
[[record]]
compound = "CCCCN1CCCCC1C(=O)Nc1c(C)cccc1C (racemic) [4 R, N--n-butylpipecolic acid-2,6-xylidide]"
observed_value = "15/20"

[[record]]
compound = "CCCCN1CCCC[C@H]1C(=O)Nc1c(C)cccc1C"
observed_value = "13/20"


Problem: Fill in the recorded Frequency (successful anesthesias of total performed) for this compound, with ulnar volar nerves as test system: CCCCN1CCCC[C@@H]1C(=O)Nc1c(C)cccc1C
Result: 14/20

###

test system: peripheral nerve endings of the epidermis; test: Intracutaneous wheals, infiltration anesthesia on forearms of man; format: in vivo; conditions: Conc. 0.25%; 12 healthy volunteers, pinprick
Measured Analgesia-duration, intracutaneous wheals of individual entries
Report only the number, with the unit min understood.

# count of solved cases: 4
[[record]]
compound = "CCCCN1CCCC[C@@H]1C(=O)Nc1c(C)cccc1C [4 D]"
scale_unit = "min"
observed_value = 75

[[record]]
compound = "CCCCN1CCCC[C@H]1C(=O)Nc1c(C)cccc1C [4 L]"
scale_unit = "min"
observed_value = 76

[[record]]
compound = "CCCN1CCCC[C@@H]1C(=O)Nc1c(C)cccc1C [3 D]"
scale_unit = "min"
observed_value = 81

[[record]]
compound = "CCCN1CCCC[C@H]1C(=O)Nc1c(C)cccc1C [3 L, L-N-n-propylpipecolic acid-2,6-xylidide]"
scale_unit = "min"
observed_value = 220


Problem: Endpoint output: Analgesia-duration, intracutaneous wheals of CCN1CCCC[C@@H]1C(=O)Nc1c(C)cccc1C [2 D] . Value?
Result: 58

Problem: Endpoint output: Analgesia-duration, intracutaneous wheals of CCCCN1CCCCC1C(=O)Nc1c(C)cccc1C (racemic) [4 R, N--n-butylpipecolic acid-2,6-xylidide] . Value?
Result: 118

Problem: Endpoint output: Analgesia-duration, intracutaneous wheals of CCCN1CCCCC1C(=O)Nc1c(C)cccc1C (stereo not shown) [3 R, N--n-propylpipecolic acid 2,6-xylidide] . Value?
Result: 84

###

assay: Force of contraction of guinea pig papillary muscle; type: cell-based; settings: guinea pig, papillary muscle
MEASUREMENT_KIND: inhibition at 5 µM

[[record]]
molecule = "CCCN1CCCC[C@H]1C(=O)Nc1c(C)cccc1C [3 L, L-N-n-propylpipecolic acid-2,6-xylidide]"
measurement_kind = "inhibition at 5 µM"
observed_value = "13.8%"


Now let's try a different one.
Problem: Endpoint output: inhibition at 5 µM of CCCCN1CCCCC1C(=O)Nc1c(C)cccc1C (racemic) [4 R, N--n-butylpipecolic acid-2,6-xylidide] . Value?
Result: 45.1%

###

tested on: ulnar volar nerves; assay: Finger blockade, digital nerve blocks in man; type: in vivo; settings: Concentration 0.25%
MEASUREMENT_KIND: Frequency (successful anesthesias of total performed)

[[record]]
compound = "CCCN1CCCC[C@H]1C(=O)Nc1c(C)cccc1C [3 L, L-N-n-propylpipecolic acid-2,6-xylidide]"
observed_value = "6/7"

[[record]]
compound = "CCCN1CCCC[C@@H]1C(=O)Nc1c(C)cccc1C"
observed_value = "7/8"


Now let's try a different one.
Problem: Endpoint output: Frequency (successful anesthesias of total performed) of CCCN1CCCCC1C(=O)Nc1c(C)cccc1C (stereo not drawn) [3 R, N--n-propylpipecolic acid 2,6-xylidide] . Value?
Result: 9/10
